Target: T1, BCORL1 PUFD (1594-1711) with METR leader, co-expressed and purified with PCGF1 RAWUL (human, UniProt Q5H9F3-1 1594-1711)
T1 sequence: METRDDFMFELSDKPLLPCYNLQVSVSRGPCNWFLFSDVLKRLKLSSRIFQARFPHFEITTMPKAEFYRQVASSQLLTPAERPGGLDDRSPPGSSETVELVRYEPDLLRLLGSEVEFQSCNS
Assay: AUC
pKd: −log10 of the molar value.
property.name: pKd

Param item = PCGF1 RAWUL (167-255), co-expressed and purified with a PUFD (domain or fragment, human, UniProt Q9BSM1 167-255, looked up) EQLNLCLERLSSGKDKNKSVLQNKYVRCSVRAEVRHLRRVLCHRLMLNPQHVQLLFDNEVLPDHMTMKQIWLSRWFGKPSPLLLQYSVK ; retrieve measured pKd.
> 5.07
